Test system: 941728-121-R-J1-PDC complex spheroid viability
Assay: Anticancer human tumor 941728-121-R-J1-PDC patient-derived lung adenocarcinoma cell line growth inhibition [RAS]
Details: second compound 0.000949 µM; first compound 0.316 µM; hits give low values
recorded endpoint: viability, T/C (%)
Value expressed in %; do not type the unit.

[
  {
    "compound": "NC1c2ccccc2OC12CCN(c1cnc3c(N4CCCc5ncccc54)n[nH]c3n1)CC2 (configuration not stated) + CCn1c(-c2cccnc2C(C)OC)c2c3cc(ccc31)N1CCOC(CC(NC(=O)C(C(C)C)N(C)C(=O)C3(F)CCN(C(=O)C#CC(C)(C)N(C)C)CC3)C(=O)N3CCCC(N3)C(=O)OCC(C)(C)C2)C1",
    "target system": "941728-121-R-J1-PDC complex spheroid viability",
    "reported measurement": 12.8
  }
]

Kindly consider the entry below.
Give the reported value of viability, T/C for this record: NC1c2ccccc2OC12CCN(c1cnc3c(N4CCCc5ncccc54)n[nH]c3n1)CC2 (configuration not stated) + CCn1c(-c2cc(N3CCN(C)CC3)cnc2C(C)OC)c2c3cc(ccc31)-c1csc(n1)CC(NC(=O)C1CC1C)C(=O)N1CCCC(N1)C(=O)OCC(C)(C)C2 13.4

====

List of viability, T/C values.
System: 941728-121-R-J1-PDC complex spheroid viability
Test: Anticancer human tumor 941728-121-R-J1-PDC cell line growth inhibition [RAS];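 also: spheroids exposed to compounds for 7 days before readout; 100% = DMSO vehicle control viability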
Details: second compound 0.0316 µM; first compound 1 µM; hits give low values
From the text: RAS pathway inhibitors in Combinations in Complex Spheroids A high-throughput screen of multi-cell type tumor spheroids was designed to identify active combinations of RAS pathway inhibitors and targeted small molecules. Complex spheroids include a stromal component modeled by human endothelial cells (HUVEC) and fibroblasts modeled by human mesenchymal stem cells (MSCs). […] Compounds. […] If the clinical Cmax for an agent had not been determined, the highest concentration tested was 10 microM. […]
Value expressed in %; do not type the unit.

Below: 10 compounds and their reported viability, T/C.
[
  {
    "compound": "C=CC(=O)N1CCN(c2nc(OCC3CCCN3C)nc3c(F)c(-c4nc(N)cc(C)c4C(F)(F)F)c(Cl)cc23)C(C)C1 (stereo unspecified) + C#Cc1c(F)ccc2cc(O)cc(-c3ncc4c(N5CC6CCC(C5)N6)nc(OCC56CCCN5CC(F)C6)nc4c3F)c12",
    "unit name": "%",
    "viability, T/C": 21.2
  },
  {
    "compound": "CC(Nc1ccc2c(c1)OCCn1cc(N3C(=O)OCC3C(F)F)nc1-2)C(N)=O (stereo unspecified) + C=CC(=O)N1CCN(c2nc(OCC3CCCN3C)nc3c(F)c(-c4nc(N)cc(C)c4C(F)(F)F)c(Cl)cc23)C(C)C1",
    "unit name": "%",
    "viability, T/C": 12.9
  },
  {
    "compound": "O=C(c1ccc(F)c(F)c1Nc1ccc(I)cc1F)N1CC(O)([C@@H]2CCCCN2)C1 + C#Cc1c(F)ccc2cc(O)cc(-c3ncc4c(N5CC6CCC(C5)N6)nc(OCC56CCCN5CC(F)C6)nc4c3F)c12",
    "unit name": "%",
    "viability, T/C": 24.4
  },
  {
    "compound": "CCC(CC)c1cc(NC2CCC(N)C2)n2nccc2n1 (stereo unspecified) + C#Cc1c(F)ccc2cc(O)cc(-c3ncc4c(N5CC6CCC(C5)N6)nc(OCC56CCCN5CC(F)C6)nc4c3F)c12",
    "unit name": "%",
    "viability, T/C": 90.5
  },
  {
    "compound": "Cc1nc(N2CCC3(CC2)COC(C)C3N)c(CO)nc1Sc1ccnc(N)c1Cl (stereo unspecified) + C#Cc1c(F)ccc2cc(O)cc(-c3ncc4c(N5CC6CCC(C5)N6)nc(OCC56CCCN5CC(F)C6)nc4c3F)c12",
    "unit name": "%",
    "viability, T/C": 33.5
  },
  {
    "compound": "CC(C)NCC(C(=O)N1CCN(c2ncnc3c2C(C)CC3O)CC1)c1ccc(Cl)cc1 (stereo unspecified) + C#Cc1c(F)ccc2cc(O)cc(-c3ncc4c(N5CC6CCC(C5)N6)nc(OCC56CCCN5CC(F)C6)nc4c3F)c12",
    "unit name": "%",
    "viability, T/C": 51.8
  },
  {
    "compound": "C[C@@H](NC(=O)c1ncnc(N)c1Cl)c1ncc(C(=O)Nc2cc(C(F)(F)F)c(Cl)cn2)s1 + C#Cc1c(F)ccc2cc(O)cc(-c3ncc4c(N5CC6CCC(C5)N6)nc(OCC56CCCN5CC(F)C6)nc4c3F)c12",
    "unit name": "%",
    "viability, T/C": 94.4
  },
  {
    "compound": "Nc1ccn(C2OC(CO)C(O)C2(F)F)c(=O)n1 (stereo unspecified) + C=CC(=O)N1CCN(c2nc(OCC3CCCN3C)nc3c(F)c(-c4nc(N)cc(C)c4C(F)(F)F)c(Cl)cc23)C(C)C1",
    "unit name": "%",
    "viability, T/C": 15.2
  },
  {
    "compound": "CC(=O)OC12COC1CC(O)C1(C)C(=O)C(O)C3=C(C)C(OC(=O)C(O)C(NC(=O)OC(C)(C)C)c4ccccc4)CC(O)(C(OC(=O)c4ccccc4)C21)C3(C)C (stereo unspecified) + C=CC(=O)N1CCN(c2nc(OCC3CCCN3C)nc3c(F)c(-c4nc(N)cc(C)c4C(F)(F)F)c(Cl)cc23)C(C)C1",
    "unit name": "%",
    "viability, T/C": 12.8
  },
  {
    "compound": "CCC(CC)c1cc(NC2CCC(N)C2)n2nccc2n1 (stereo unspecified) + C=CC(=O)N1CCN(c2nc(OCC3CCCN3C)nc3c(F)c(-c4nc(N)cc(C)c4C(F)(F)F)c(Cl)cc23)C(C)C1",
    "unit name": "%",
    "viability, T/C": 27.3
  }
]

Give the reported value of viability, T/C for this record: CC(Nc1ccc2c(c1)OCCn1cc(N3C(=O)OCC3C(F)F)nc1-2)C(N)=O (stereo unspecified) + C#Cc1c(F)ccc2cc(O)cc(-c3ncc4c(N5CC6CCC(C5)N6)nc(OCC56CCCN5CC(F)C6)nc4c3F)c12 35.9

Give the reported value of viability, T/C for this record: CC1(O)CCCC1n1c(=O)c(C(F)F)cc2cnc(NC3CCN(S(C)(=O)=O)CC3)nc21 (stereo unspecified) + C=CC(=O)N1CCN(c2nc(OCC3CCCN3C)nc3c(F)c(-c4nc(N)cc(C)c4C(F)(F)F)c(Cl)cc23)C(C)C1 19.1

Give the reported value of viability, T/C for this record: CC(C)NCC(C(=O)N1CCN(c2ncnc3c2C(C)CC3O)CC1)c1ccc(Cl)cc1 (stereo unspecified) + C=CC(=O)N1CCN(c2nc(OCC3CCCN3C)nc3c(F)c(-c4nc(N)cc(C)c4C(F)(F)F)c(Cl)cc23)C(C)C1 14.7
